- Tested on: CRL-7250
- TEST DETAILS: Cytotoxic Profiling of Annotated Libraries Using Quantitative High-Throughput Screening (AID 1296008); further: nearly all actives have a fitted effect of over 60% in size
- CONDITION LABEL: Five cell lines viability, CellTiter-Glo ATP luminescence, 48-72 h
Results filed as inconclusive are left out. The source made the active and inactive calls. The call rests on the fitted dose curve; in most records, active means well fitted inhibition curve with a large enough effect; inconclusive means small, poorly fitted or top-dose-only effect; inactive means flat fitted curve, though single readings scatter.
Hi! Could you answer with just one of these? t = active, f = inactive

Use these answered entries as a reference point.
[
  {
    "COMPOUND": "C[C@@H]1O[C@@H](O[C@H]2[C@H](OC(=O)[C@]34CCC(C)(C)C[C@H]3C3=CCC5[C@@]6(C)C[C@H](O)[C@H](O[C@@H]7O[C@H](C(=O)O)[C@@H](O)[C@H](O)[C@H]7O)[C@@](C)(CO)C6[C@H](O)C[C@@]5(C)[C@]3(C)C[C@H]4O)O[C@@H](CO)[C@@H]2O)[C@H](O)[C@H](O)[C@H]1O[C@@H]1OC[C@@H](O)[C@H](O[C@H]2OC[C@](O)(CO)[C@H]2O)[C@H]1O (stereo partly specified)",
    "CLASS NAME": "f"
  },
  {
    "COMPOUND": "COc1cc(S(C)(=O)=O)ccc1Nc1nc2ccc(-c3ccc(NC(=O)[C@H](C)c4ccc(F)cc4)cc3)cn2n1",
    "CLASS NAME": "f"
  },
  {
    "COMPOUND": "CC1=CC2/C=C(\\C)CCC(O)C(=O)C(O)CC(=O)C23C(=O)NC(CC(C)C)C3C1C (stereo unspecified)",
    "CLASS NAME": "f"
  },
  {
    "COMPOUND": "CC(C)c1c(O)ccc2c1CC[C@H]1C(C)(C)CCC[C@]21C",
    "CLASS NAME": "f"
  },
  {
    "COMPOUND": "CC(C)=C1C[C@@]2(C)C(=CC1=O)CC[C@@H](OC(=O)/C(C)=C/CO)[C@@H]2C",
    "CLASS NAME": "t"
  },
  {
    "COMPOUND": "CC(C)OC(=O)N1CCC(Oc2ncnc3c2cnn3-c2ccc(S(C)(=O)=O)cc2F)CC1",
    "CLASS NAME": "f"
  },
  {
    "COMPOUND": "Cc1sc2c(c1C)C(c1ccc(Cl)cc1)=N[C@H](CC(=O)NCCCCNC(=O)COc1cccc3c1C(=O)N([C@H]1CCC(=O)NC1=O)C3=O)c1nnc(C)n1-2",
    "CLASS NAME": "t"
  },
  {
    "COMPOUND": "CC/C=C\\CC1C(=O)C=CC1(CCCCC1CCC(=O)O1)OC(C)=O (stereo unspecified)",
    "CLASS NAME": "f"
  },
  {
    "COMPOUND": "COc1ccc(C2Oc3c(OC)cc(CCCO)cc3C2COC2OC(CO)C(O)C(O)C2O)cc1OC (stereo unspecified)",
    "CLASS NAME": "f"
  },
  {
    "COMPOUND": "CN1CCc2cc3c(cc2C(=O)Cc2cc4c(cc2C1)OCO4)OCO3",
    "CLASS NAME": "f"
  }
]

Kindly consider the entry below.
For COc1cc(Br)c(S(=O)(=O)Nc2ccc(Cl)c(O[C@@H]3CCN(C)C3)c2)cc1OC , which call appears in the assay record? f

Origin of values: PubChem BioAssay (NCATS)
